Hello, the source for this data is the antibiotic and cytotoxicity screens of Wong et al. (2023), in case you need it.

test system: HepG2; assay: cytotoxicity call (relative viability < 0.9); conditions: 10 µM
Out of some 39,000 compounds screened, about 3,300 (8.5%) were called active. The sample holds actives, similar compounds and a random draw of the others, so the mix is not that of the screen.
READOUT TYPE: cytotoxicity call

- C[C@H](CO)N1C[C@H](C)[C@H](CN(C)Cc2ccncc2)OCCCC[C@H](C)Oc2ccc(NC(=O)Nc3ccc(C(F)(F)F)cc3)cc2C1=O: active
- C[C@@H]1CCCCO[C@@H](CN(C)Cc2ccncc2)[C@H](C)CN([C@H](C)CO)C(=O)c2cc(NC(=O)Nc3ccc(C(F)(F)F)cc3)ccc2O1: active

---

tested on: HepG2; experiment: cytotoxicity call (relative viability < 0.9); conditions: 10 µM
Among all 39,000 compounds or so, about 3,300 (8.5%) were called active. Shown is part of a subset that was picked to be rich in actives.
Mark one answer only. Choices: True (active), False (inactive)

// known answers, use as guide
• C[C@@H]1CCCCO[C@@H](CN(C)S(=O)(=O)c2cccs2)[C@H](C)CN([C@@H](C)CO)C(=O)c2cc(NC(=O)Cc3ccccc3)ccc2O1 = False
• C[C@@H]1CCCCO[C@@H](CN(C)S(=O)(=O)c2cccs2)[C@H](C)CN([C@H](C)CO)C(=O)c2cc(NC(=O)Cc3ccccc3)ccc2O1 = True
• C[C@H](CO)N1C[C@H](C)[C@H](CN(C)S(=O)(=O)c2cccs2)OCCCC[C@H](C)Oc2ccc(NC(=O)Nc3ccc(F)cc3)cc2C1=O = False
• C[C@@H]1CN([C@@H](C)CO)C(=O)c2cc(NC(=O)NC3CCCCC3)ccc2O[C@@H](C)CCCCO[C@@H]1CN(C)S(=O)(=O)c1cccs1 = False
• O=C(C[C@H]1C[C@H]2c3cc(NS(=O)(=O)c4ccc(F)cc4)ccc3O[C@H]2[C@@H](CO)O1)NCCc1ccccc1 = False

Then this compound:
Query string: Hello, I am checking results. What call was entered for `C[C@@H]1CCCCO[C@@H](CN(C)S(=O)(=O)c2cccs2)[C@H](C)CN([C@H](C)CO)C(=O)c2cc(NC(=O)NC3CCCCC3)ccc2O1` ?
Result string: True

---

system: HepG2; assay: cytotoxicity call (relative viability < 0.9); conditions: 10 µM
Screen size: about 39,000 compounds; about 3,300 (8.5%) were called active. Only a selection was taken, and actives are over-represented in it overall.
READOUT TYPE: cytotoxicity call

• C[C@@H]1CN([C@@H](C)CO)C(=O)c2cc(NC(=O)C3CCCCC3)ccc2O[C@@H]1CN(C)Cc1ccc(Oc2ccccc2)cc1 = inactive
• C[C@H](CO)N1C[C@H](C)[C@H](CN(C)Cc2ccc(-c3ccccc3)cc2)Oc2ccc(NC(=O)C3CC3)cc2C1=O = inactive
• C[C@@H]1CN([C@@H](C)CO)C(=O)c2cc(NC(=O)C3CC3)ccc2O[C@H]1CN(C)Cc1ccc(-c2ccccc2)cc1 = inactive

---

test system: HepG2; test: cytotoxicity call (relative viability < 0.9); settings: 10 µM
About 3,300 (8.5%) of roughly 39,000 compounds were called active. Only a selection was taken, and actives are over-represented in it overall.
Mark one answer only. Choices: true (1) for active, false (0) for inactive

* O=C(Cn1cnnn1)NC1C(=O)N2C(C(=O)O)=C(CSc3nncs3)CSC12 (stereo not drawn) | false (0)

Query string: Hello, I am checking results. What call was entered for `COc1cccc(C#Cc2cnc3c(c2)C(=O)N([C@H](C)CO)C[C@@H](C)[C@@H](CN(C)C(=O)C2CCOCC2)O3)c1` ?
Result string: false (0)

Query string: Entry to check: `COc1ccc2c3c([nH]c2c1)[C@@H](CO)N(C[C@]13CCN(CC1)CC1CCCCC1)C(=O)Nc1c(noc1C)C`
Result string: false (0)

Query string: Entry to check: `CC(C)N1C[C@H](CNCc2ccc(Oc3ccccc3)cc2)Oc2c(NC(=O)c3ccncc3)cccc2C1=O`
Result string: false (0)

Query string: Entry to check: `COc1ccc2c3c([nH]c2c1)[C@@H](CO)N(CC1CCCCC1)C[C@]13CCN(CC1)C(=O)Nc1cccc(c1)F`
Result string: false (0)

Query string: Entry to check: `COc1ccc2c3c([nH]c2c1)[C@H](CO)N(CC1CCCCC1)C[C@]13CCN(CC1)C(=O)Nc1cccc(c1)F`
Result string: false (0)

Query string: Entry to check: `COc1ccc2c3c([nH]c2c1)[C@H](CO)N(C[C@]13CCN(CC1)CC1CCCCC1)C(=O)Nc1cccc(c1)F`
Result string: true (1)

Query string: Entry to check: `COc1ccc2c3c([nH]c2c1)[C@H](CO)N(C[C@]13CCN(CC1)CC1CCCCC1)C(=O)Nc1c(noc1C)C`
Result string: false (0)
